Ref: ChEMBL document CHEMBL4382247

# METHOD_SUMMARY: Aqueous solubility of the compound in water at 2 mg after 24 hrs by HPLC analysis
# Assay type: physicochemical
MEASURED_PROPERTY: solubility at 24 h (µM)
Field: numeric (µM). Do not append units.

Here's what some known entries look like.
Give the measured solubility at 24 h of CCN1CCN(C(=O)c2cc3c(o2)C(=O)c2ccccc2C3=O)CC1 . 241

Give the measured solubility at 24 h of O=C1c2ccccc2C(=O)c2oc(C(=O)N3CCOCC3)cc21 . 162

Give the measured solubility at 24 h of O=C(NCCN1CCCCC1)c1cc2c(o1)C(=O)c1ccccc1C2=O . 201

Give the measured solubility at 24 h of O=C1CCN(C(=O)c2cc3c(o2)C(=O)c2ccccc2C3=O)CC1 . 118

More entries:
Give the measured solubility at 24 h of CN1CCN(C(=O)c2cc3c(o2)C(=O)c2ccccc2C3=O)CC1 . 337

* * *

# System: HT-29
# METHOD_SUMMARY: Antiproliferative activity against human HT-29 cells after 72 hrs by MTT assay
# Format: functional, cell-based
# EXPERIMENTAL_CONDITIONS: HT-29, 72 h
MEASURED_PROPERTY: IC50

For HT-29, provide IC50 of CCN1CCN(C(=O)c2cc3c(o2)C(=O)c2ccccc2C3=O)CC1 please. 0.21 µM

More entries:
For HT-29, provide IC50 of O=C(NC12CC3CC(CC(C3)C1)C2)c1cc2c(o1)C(=O)c1ccccc1C2=O please. > 10 µM

For HT-29, provide IC50 of O=C(/C=C/c1ccccc1)c1cc2c(o1)C(=O)c1ccccc1C2=O please. > 10 µM

For HT-29, provide IC50 of O=C(/C=C/c1ccc(-c2ccccc2)cc1)c1cc2c(o1)C(=O)c1ccccc1C2=O please. > 10 µM

* * *

# Lookup of reported pIC50 keyed by entry
# Tested on: CT26
# METHOD_SUMMARY: Antiproliferative activity against mouse CT26 cells after 72 hrs by MTT assay
# Format: functional, cell-based
# EXPERIMENTAL_CONDITIONS: CT26, 72 h
API: returns pIC50 as number; meaning -log10 of concentration in mol/L.

Here's what some known entries look like.
Give the measured pIC50 of O=C1c2ccccc2C(=O)c2oc(C(=O)N3CCCCC3)cc21 . 6.02

Give the measured pIC50 of O=C(NCCN1CCOCC1)c1cc2c(o1)C(=O)c1ccccc1C2=O . 7.30

Give the measured pIC50 of O=C(NCCN1CCCCC1)c1cc2c(o1)C(=O)c1ccccc1C2=O . 6.85

Give the measured pIC50 of O=C1CCN(C(=O)c2cc3c(o2)C(=O)c2ccccc2C3=O)CC1 . 6.21

Give the measured pIC50 of O=C1c2ccccc2C(=O)c2oc(C(=O)N3CCSCC3)cc21 . 5.87

More entries:
Give the measured pIC50 of CCN1CCN(C(=O)c2cc3c(o2)C(=O)c2ccccc2C3=O)CC1 . 6.23

Give the measured pIC50 of CC(=O)c1cc2c(o1)C(=O)c1ccccc1C2=O . 5.60

Give the measured pIC50 of Cn1cccc1/C=C/C(=O)c1cc2c(o1)C(=O)c1ccccc1C2=O . 5.61

Give the measured pIC50 of O=C1c2ccccc2C(=O)c2oc(C(=O)N3CCCC3)cc21 . 6.24

Give the measured pIC50 of O=C(NCCN1CCCC1)c1cc2c(o1)C(=O)c1ccccc1C2=O . 6.70

Give the measured pIC50 of CN1CCN(C(=O)c2cc3c(o2)C(=O)c2ccccc2C3=O)CC1 . 6.59

Give the measured pIC50 of O=C1c2ccccc2C(=O)c2oc(C(=O)N3CCOCC3)cc21 . 6.24
